Exercise: state measured Determined concentration Rep 2 for each of the molecules provided.
Test: Aqueous solubility assay
Assay type: physicochemical
Conditions: PBS pH 7.4, 4 h, room temperature; replicate 2

CC(C)C[C@@H]1NC(=O)C2(CCCC2)NC(=O)[C@@H]2CCCN2[C@H](C(=O)NC(C)(C)C)[C@H](C)NC(=O)[C@H]([C@@H](C)O)NC(=O)[C@H](CC(=O)O)NC1=O: 917.9 µM
CC(C)C[C@@H]1NC(=O)[C@H](CCCCN)NC(=O)[C@@H]2CCCN2[C@H](C(=O)NC(C)(C)C)[C@H](C)NC(=O)[C@H]([C@@H](C)O)NC(=O)[C@H](CC(=O)O)NC1=O: 958.6 µM
CC(C)C[C@@H]1NC(=O)c2cccc(c2)CNC(=O)[C@@H]2CCCN2[C@H](C(=O)NC(C)(C)C)[C@H](C)NC(=O)[C@H]([C@@H](C)O)NC(=O)[C@H](CC(=O)O)NC1=O: 950.5 µM
CC(C)C[C@@H]1NC(=O)[C@H](Cc2cscn2)NC(=O)[C@@H]2CCCN2[C@H](C(=O)NC(C)(C)C)[C@H](C)NC(=O)[C@H]([C@@H](C)O)NC(=O)[C@H](CC(=O)O)NC1=O: 182.4 µM

The record that follows has no Determined concentration Rep 2 shown yet.
// query Return Determined concentration Rep 2 for the following molecule: CC(C)C[C@@H]1NC(=O)[C@@H](Cc2ccc(O)cc2)NC(=O)[C@@H]2CCCN2[C@H](C(=O)NC(C)(C)C)[C@H](C)NC(=O)[C@H]([C@@H](C)O)NC(=O)[C@H](CC(=O)O)NC1=O
// result 960.0 µM

---

Assay: Plasma protein binding, equilibrium dialysis, rat plasma
Settings: Sprague-Dawley, rat, 50% plasma, % unbound (Cbuffer/Cplasma) Rat plasma 3, replicate 3, 1 microM, 5 h
Endpoint: fraction unbound at 5 h, 1 microM
Numbers only.

CC(C)C[C@@H]1NC(=O)[C@H](Cc2c[nH]c3ccccc23)NC(=O)[C@@H]2CCCN2[C@H](C(=O)NC(C)(C)C)[C@H](C)NC(=O)[C@H]([C@@H](C)O)NC(=O)[C@H](CC(=O)O)NC1=O [ET00762]: 0.702

# evaluate next
// query Look up and state reported fraction unbound at 5 h, 1 microM for CC(C)NCC(O)COc1cccc2ccccc12 (centres unmarked) [Propranolol, reference compound]
// result 0.147

---

Assay: Plasma protein binding, equilibrium dialysis, mouse plasma
Settings: buffer/buffer control, 0.1 uM
I'd be grateful if you could share measured Control buffer/Buffer at 0.1 uM Cdonor/Creceiver for these entries.
One number for each entry, in %.

Worked examples, 3 compounds total:
CC(C)C[C@@H]1NC(=O)[C@H](Cc2c[nH]c3ccccc23)NC(=O)[C@@H]2CCCN2[C@H](C(=O)NC(C)(C)C)[C@H](C)NC(=O)[C@H]([C@@H](C)O)NC(=O)[C@H](CC(=O)O)NC1=O [ET00762]: 79
CC(C)C[C@@H]1NC(=O)[C@H](Cc2ccc(-c3ccccc3)cc2)NC(=O)[C@@H]2CCCN2[C@H](C(=O)NC(C)(C)C)[C@H](C)NC(=O)[C@H]([C@@H](C)O)NC(=O)[C@H](CC(=O)O)NC1=O [ET01813]: 94
CC(C)C[C@@H]1NC(=O)[C@H](Cc2ccccc2)NC(=O)[C@@H]2CCCN2[C@H](C(=O)NC(C)(C)C)[C@H](C)NC(=O)[C@H]([C@@H](C)O)NC(=O)[C@H](CC(=O)O)NC1=O [ET01792]: 80

// query Tell me measured Control buffer/Buffer at 0.1 uM Cdonor/Creceiver for CC[C@H](C)[C@@H]1NC(=O)[C@H](CC(=O)O)NC(=O)[C@H](CC(C)C)NC(=O)[C@H](Cc2ccc3ccccc3c2)NC(=O)[C@@H]2CCCN2[C@H](C(=O)NC(C)(C)C)[C@H](C)NC1=O [ET01827] please.
// result 86
